METHOD: Mean animal weight / weight gain after tumor transplantation
Assay type: in vivo, rat (Sprague-Dawley rats)
MEASUREMENT PARAMETERS: day 50 after tumor transplantation; CP 70 (exp. 1-3), BCNU 25, MeCCNU 45 (exp. 1), picolyl-3-CNU 25, its HCl 25 (exp. 2), morpholino-CNU 28, piperidino-CNU 15 (exp. 3), dimethylmorpholino-CNU 45 mg/kg (exp. 4)
Where a name gives a salt, the structure may show the parent alone.
Mean animal weight on day 50 values for the compounds below.
// note: answer is a bare numeric in g

Entry CC1CN(NC(=O)N(CCCl)N=O)CC(C)O1 (centres unmarked) [Dimethylmorpholino-CNU] has what Mean animal weight on day 50?
250

What do you get for O=NN(CCCl)C(=O)NN1CCOCC1 [Morpholino-CNU] ?
270

What do you get for CC1CCC(NC(=O)N(CCCl)N=O)CC1 (centres unmarked) [MeCCNU] ?
280

What do you get for O=NN(CCCl)C(=O)NN1CCCCC1 [Piperidino-CNU] ?
340

New cases:
Entry O=NN(CCCl)C(=O)NCc1cccnc1 [Picolyl-3-CNU.HCl] has what Mean animal weight on day 50?
250

What do you get for O=NN(CCCl)C(=O)NCc1cccnc1 [Picolyl-3-CNU] ?
250

What do you get for O=NN(CCCl)C(=O)NCCCl [BCNU, 1,3-bis-(2-chloroethyl)-1-nitrosourea] ?
270

---

METHOD: Mean animal weight / weight gain after tumor transplantation
Format: in vivo, rat (Sprague-Dawley rats)
MEASUREMENT PARAMETERS: day 100 after tumor transplantation; CP 70 (exp. 1-3), BCNU 25, MeCCNU 45 (exp. 1), picolyl-3-CNU 25, its HCl 25 (exp. 2), morpholino-CNU 28, piperidino-CNU 15 (exp. 3), dimethylmorpholino-CNU 45 mg/kg (exp. 4)
Where a name gives a salt, the structure may show the parent alone.
Mean animal weight on day 100 values for the molecules below.
// note: answer is a bare numeric in g

The following molecules have reported results that may help.
Entry CC1CN(NC(=O)N(CCCl)N=O)CC(C)O1 (centres unmarked) has what Mean animal weight on day 100?
250

What do you get for O=NN(CCCl)C(=O)NCc1cccnc1 [Picolyl-3-CNU.HCl] ?
260

What do you get for O=NN(CCCl)C(=O)NN1CCCCC1 ?
410

What do you get for O=NN(CCCl)C(=O)NN1CCOCC1 ?
270

What do you get for CC1CCC(NC(=O)N(CCCl)N=O)CC1 (centres unmarked) ?
300

What do you get for O=NN(CCCl)C(=O)NCc1cccnc1 [Picolyl-3-CNU] ?
250

Okay, next one:
Entry O=NN(CCCl)C(=O)NCCCl has what Mean animal weight on day 100?
300

---

METHOD: Toxicity in treated tumor-bearing rats (Yoshida sarcoma experiments)
Format: in vivo, rat (Sprague-Dawley rats)
MEASUREMENT PARAMETERS: rat, in vivo, ip, 45 mg/kg; read-out: animals died without a tumor before day 120
Experimental: Male Sprague-Dawley rats were used in the experiments. Yoshida sarcome in ascites form was maintained in the same strain of rats by serial intraperitoneal injection of 0,5 ml of ascites fluid. 3×10^6 cells were injected into the colon wall in a manner known per se. […] Each experiment involved an untreated control group and a varying number of treated groups. Individual survival times were counted as days after tumor inoculation. […]
MEASURED PARAMETER: mortality at 2880 h (%)
// note: answer is a bare numeric in %

Entry CC1CCC(NC(=O)N(CCCl)N=O)CC1 (stereo not shown) has what mortality at 2880 h?
19
